Overview of reported viability across a group of compounds:
condition.description: % Viability non-Wnt responsive cells
Where a SMILES comes first, the peptide text is derived from it.
measured.quantity: viability

>>> recorded_result("CC[C@H](C)[C@H](NC(=O)[C@H](Cc1c[nH]c2ccccc12)NC(=O)[C@@H](N)CCSC)C(=O)N[C@@H](CC(C)C)C(=O)N[C@H](C(=O)N[C@@H](C(=O)N[C@@H](Cc1ccccc1)C(=O)N[C@@H](Cc1c[nH]c2ccccc12)C(=O)NCC(=O)O)[C@H](C)O)[C@@H](C)CC [compound 137] (HELM PEPTIDE1{M.W.I.L.I.[dT].F.W.G}$$$$V2.0)")
"93.9%"
>>> recorded_result("CC[C@H](C)[C@H](NC(=O)[C@H](CC(C)C)NC(=O)[C@H](Cc1ccccc1)NC(=O)[C@H](Cc1c[nH]c2ccccc12)NC(=O)[C@@H](N)CCSC)C(=O)N[C@@H](CO)C(=O)N[C@@H](CO)C(=O)N[C@@H](Cc1c[nH]c2ccccc12)C(=O)O [compound 96] (H-MWFLISSW-OH)")
"97.3%"
>>> recorded_result("CC[C@H](C)[C@H](NC(=O)[C@H](CC(C)C)NC(=O)[C@H](Cc1ccccc1)NC(=O)[C@H](Cc1c[nH]c2ccccc12)NC(=O)[C@H](CCSC)NC(=O)[C@H](CCCNC(=N)N)NC(=O)[C@H](CC(N)=O)NC(=O)[C@@H](N)CCSC)C(=O)N[C@@H](CO)C(=O)N[C@@H](Cc1ccccc1)C(=O)N[C@@H](Cc1c[nH]c2ccccc12)C(=O)NCC(=O)O [compound 61] (H-MNRMWFLISFWG-OH)")
"100%"
>>> recorded_result("CC[C@H](C)[C@H](NC(=O)[C@H](CC(C)C)NC(=O)[C@H](Cc1ccccc1)NC(=O)[C@@H](N)Cc1c[nH]c2ccccc12)C(=O)N[C@H](C(=O)N[C@H](C(=O)N[C@@H](Cc1c[nH]c2ccccc12)C(=O)O)[C@@H](C)O)[C@@H](C)O [compound 100] (H-WFLITTW-OH)")
"102%"
>>> recorded_result("CC[C@H](C)[C@H](NC(=O)[C@H](CC(C)C)NC(=O)[C@H](Cc1ccccc1)NC(=O)[C@@H](N)Cc1c[nH]c2ccccc12)C(=O)N[C@@H](CO)C(=O)N[C@@H](CO)C(=O)N[C@@H](Cc1c[nH]c2ccccc12)C(=O)O [compound 97] (H-WFLISSW-OH)")
"102%"
>>> recorded_result("CC[C@H](C)[C@H](NC(=O)[C@H](CC(C)C)NC(=O)[C@@H](NC(=O)[C@H](Cc1c[nH]c2ccccc12)NC(=O)[C@@H](N)CCSC)[C@@H](C)CC)C(=O)N[C@@H](CO)C(=O)N[C@@H](CO)C(=O)N[C@@H](Cc1c[nH]c2ccccc12)C(=O)NCC(=O)O [compound 129] (H-MWILISSWG-OH)")
"134%"
>>> recorded_result("CC[C@H](C)[C@H](NC(=O)[C@H](CC(C)C)NC(=O)[C@@H](NC(=O)[C@H](Cc1c[nH]c2ccccc12)NC(=O)[C@@H](N)Cc1c[nH]c2ccccc12)[C@@H](C)CC)C(=O)N[C@@H](CO)C(=O)N[C@@H](Cc1ccccc1)C(=O)N[C@@H](Cc1c[nH]c2ccccc12)C(=O)NCC(=O)O [compound 127] (H-WWILISFWG-OH)")
"120%"

====

study.target: β-catenin (Homo sapiens, UniProt P35222)
Sequence (P35222 1-781): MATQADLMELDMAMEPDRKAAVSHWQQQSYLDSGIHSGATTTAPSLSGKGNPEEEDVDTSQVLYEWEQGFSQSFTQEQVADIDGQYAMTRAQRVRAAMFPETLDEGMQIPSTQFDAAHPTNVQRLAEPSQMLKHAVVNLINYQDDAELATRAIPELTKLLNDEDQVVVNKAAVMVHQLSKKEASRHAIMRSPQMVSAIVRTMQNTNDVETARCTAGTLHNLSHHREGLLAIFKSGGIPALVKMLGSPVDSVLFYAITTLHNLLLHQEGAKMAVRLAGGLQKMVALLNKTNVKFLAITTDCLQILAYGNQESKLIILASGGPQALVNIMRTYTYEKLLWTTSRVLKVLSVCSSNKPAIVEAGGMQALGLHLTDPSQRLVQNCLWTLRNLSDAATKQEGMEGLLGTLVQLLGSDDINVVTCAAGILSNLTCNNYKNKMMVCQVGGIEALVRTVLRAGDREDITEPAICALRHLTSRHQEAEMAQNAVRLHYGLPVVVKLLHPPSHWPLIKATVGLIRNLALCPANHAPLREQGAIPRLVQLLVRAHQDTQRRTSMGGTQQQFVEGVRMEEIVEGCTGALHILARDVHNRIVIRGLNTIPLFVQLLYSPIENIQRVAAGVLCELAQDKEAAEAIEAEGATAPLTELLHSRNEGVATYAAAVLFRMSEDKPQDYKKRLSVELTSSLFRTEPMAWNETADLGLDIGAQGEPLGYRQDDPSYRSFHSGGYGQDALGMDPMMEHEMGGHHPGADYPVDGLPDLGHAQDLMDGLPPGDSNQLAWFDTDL
protocol.summary: KD50 measurement using competitive fluorescence polarization (FP) with labelled TCF4
Format: binding
condition.description: fluorescence polarization, β-catenin
Where a SMILES comes first, the peptide text is derived from it.
Overview of reported β-Cat FP Hill slope across a group of molecules:
measured.quantity: β-Cat FP Hill slope

>>> recorded_result("CC[C@H](C)[C@@H]1NC(=O)[C@H](CC(C)C)NC(=O)[C@H](Cc2ccccc2)NC(=O)[C@H](Cc2c[nH]c3ccccc23)NC(=O)[C@@H](N)CCCCNC(=O)CCCCCNC(=O)C[C@@H](C(=O)O)NC(=O)[C@H](Cc2c[nH]c3ccccc23)NC(=O)[C@H](C)NC(=O)[C@H](CS)NC1=O [compound 249] (HELM PEPTIDE1{K.W.F.L.I.C.A.W.[O=C(O)[C@H](CC(=O)[*:2])N[*:1]].[O=C(CCCCCN[*:1])[*:2]]}$PEPTIDE1,PEPTIDE1,1:R3-10:R2$$$V2.0)")
0.92
>>> recorded_result("CC[C@H](C)[C@@H]1NC(=O)[C@H](CC(C)C)NC(=O)[C@H](Cc2ccccc2)NC(=O)[C@H](Cc2c[nH]c3ccccc23)NC(=O)[C@H](CCSC)NC(=O)[C@H](CCCNC(=N)N)NC(=O)[C@H](CO)NC(=O)[C@H](CCSC)NC(=O)[C@@H](N)CCCCNC(=O)CNC(=O)[C@H](CCCNC(=N)N)NC(=O)[C@H](Cc2c[nH]c3ccccc23)NC(=O)[C@H](Cc2ccccc2)NC(=O)[C@H](CO)NC1=O [compound 24] (HELM PEPTIDE1{K.M.S.R.M.W.F.L.I.S.F.W.R.G}$PEPTIDE1,PEPTIDE1,1:R3-14:R2$$$V2.0; bridges inferred)")
1
>>> recorded_result("CC[C@H](C)[C@H](NC(=O)[C@H](Cc1c[nH]c2ccccc12)NC(=O)[C@@H](N)CCSC)C(=O)N[C@@H](CC(C)C)C(=O)N[C@H](C(=O)N[C@@H](C(=O)N[C@@H](Cc1ccccc1)C(=O)N[C@@H](Cc1c[nH]c2ccccc12)C(=O)NCC(=O)O)[C@H](C)O)[C@@H](C)CC [compound 137] (HELM PEPTIDE1{M.W.I.L.I.[dT].F.W.G}$$$$V2.0)")
0.81
>>> recorded_result("CCCC[C@H](N)C(=O)N[C@@H](Cc1c[nH]c2ccccc12)C(=O)N[C@@H](Cc1ccccc1)C(=O)N[C@@H](CC(C)C)C(=O)N[C@H](C(=O)N[C@@H](CS)C(=O)N[C@@H](Cc1ccccc1)C(=O)N[C@@H](Cc1c[nH]c2ccccc12)C(=O)NCC(=O)O)[C@@H](C)CC [compound 164] (HELM PEPTIDE1{[Nle].W.F.L.I.C.F.W.G}$$$$V2.0)")
0.7
>>> recorded_result("CC[C@H](C)[C@@H]1NC(=O)[C@H](CC(C)C)NC(=O)[C@H](Cc2ccccc2)NC(=O)[C@H](Cc2c[nH]c3ccccc23)NC(=O)[C@H](CCSC)NC(=O)[C@@H](N)CCCCNC(=O)C[C@@H](C(=O)O)NC(=O)[C@H](Cc2c[nH]c3ccccc23)NC(=O)[C@H](Cc2ccccc2)NC(=O)[C@H](CO)NC1=O [compound 171] (HELM PEPTIDE1{K.M.W.F.L.I.S.F.W.D}$PEPTIDE1,PEPTIDE1,1:R3-10:R3$$$V2.0)")
0.7
>>> recorded_result("CC[C@@H](C)[C@H]1NC(=O)[C@@H](CC(C)C)NC(=O)[C@@H](Cc2ccccc2)NC(=O)[C@H](Cc2c[nH]c3ccccc23)NC(=O)[C@@H](CCSC)NC(=O)CCCCCCCCCCCNC(=O)C[C@@H](C(=O)O)NC(=O)[C@H](Cc2c[nH]c3ccccc23)NC(=O)[C@@H](Cc2ccccc2)NC(=O)[C@H](CS)NC1=O [compound 190] (HELM PEPTIDE1{[O=C(CCCCCCCCCCCN[*:1])[*:2]].[dM].W.[dF].[dL].[dI].C.[dF].W.D}$PEPTIDE1,PEPTIDE1,1:R1-10:R3$$$V2.0)")
1.92
>>> recorded_result("CC[C@H](C)[C@H](NC(=O)[C@H](CC(C)C)NC(=O)[C@@H](NC(=O)[C@H](Cc1c[nH]c2ccccc12)NC(=O)[C@H](CCSC)NC(=O)[C@@H](N)CCCNC(=N)N)[C@@H](C)CC)C(=O)N[C@@H](CS)C(=O)N[C@@H](Cc1ccccc1)C(=O)N[C@@H](Cc1c[nH]c2ccccc12)C(=O)NCC(=O)O [compound 115] (H-RMWILICFWG-OH)")
0.7
>>> recorded_result("CC[C@H](C)[C@@H]1NC(=O)[C@H](CC(C)C)NC(=O)[C@@H](NC(=O)[C@H](Cc2c[nH]c3ccccc23)NC(=O)[C@@H](N)CCSC)CCCCNC(=O)CC[C@@H](C(=O)N[C@@H](Cc2ccccc2)C(=O)N[C@@H](Cc2c[nH]c3ccccc23)C(=O)NCC(=O)O)NC1=O [compound 230] (HELM PEPTIDE1{M.W.K.L.I.E.F.W.G}$PEPTIDE1,PEPTIDE1,3:R3-6:R3$$$V2.0)")
0.77
>>> recorded_result("CC[C@H](C)[C@H](NC(=O)[C@H](CC(C)C)NC(=O)[C@H](Cc1ccccc1)NC(=O)[C@H](Cc1c[nH]c2ccccc12)NC(=O)[C@H](CCSC)NC(=O)[C@H](CCCNC(=N)N)NC(=O)[C@H](CO)NC(=O)[C@@H](N)CCSC)C(=O)N[C@@H](CO)C(=O)N[C@@H](CO)C(=O)N[C@@H](Cc1c[nH]c2ccccc12)C(=O)O [compound 99] (H-MSRMWFLISSW-OH)")
0.7
>>> recorded_result("CC[C@H](C)[C@@H]1NC(=O)[C@H](CC(C)C)NC(=O)[C@H]([C@@H](C)CC)NC(=O)[C@H](Cc2c[nH]c3ccccc23)NC(=O)[C@@H](N)CCCCNC(=O)CC[C@@H](C(=O)O)NC(=O)[C@H](Cc2c[nH]c3ccccc23)NC(=O)[C@H](Cc2ccccc2)NC(=O)[C@H](CO)NC1=O [compound 182] (HELM PEPTIDE1{K.W.I.L.I.S.F.W.E}$PEPTIDE1,PEPTIDE1,1:R3-9:R3$$$V2.0)")
1.06
>>> recorded_result("CC[C@@H]1NC(=O)[C@H]([C@@H](C)CC)NC(=O)[C@H](CC(C)C)NC(=O)[C@H](Cc2ccccc2)NC(=O)[C@H](Cc2c[nH]c3ccccc23)NC(=O)[C@@H](NC(C)=O)CCCCNC(=O)C[C@@H](C(=O)O)NC(=O)[C@H](Cc2c[nH]c3ccccc23)NC(=O)[C@H](C)NC1=O [compound 243] (HELM PEPTIDE1{[ac].K.W.F.L.I.[Abu].A.W.D}$PEPTIDE1,PEPTIDE1,2:R3-10:R3$$$V2.0)")
0.7
